B1: Membrane-associated guanylate kinase, WW and PDZ domain-containing protein 2, residues 296 to 340; numbered along this chain, Q86UL8 (parent)
chain: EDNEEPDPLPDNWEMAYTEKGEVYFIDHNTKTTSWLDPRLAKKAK

variants of: B1; assay: abundance fitness (aPCA) (normalised: wild type 0, dead -1); higher = more abundant; growth selection in yeast, the domain comes from the species named; conditions: Homo sapiens
Reported abundance fitness values for a set of variants
Reply with just the number.

For orientation, consider the following solved cases.
>>> print(df.to_string())
   mutations            measure  readoutnumber
0       L40K  abundance fitness          0.091
1        D2C  abundance fitness          0.256

Recorded abundance fitness of K31I , please. -0.498

Recorded abundance fitness of T18L , please. -0.514

# input variant: F25L ; wanted: its abundance fitness -0.896

Field request: abundance fitness | item: D11L 0.073

Which measured abundance fitness value corresponds to I26C ? -0.258

Entry T33G has what abundance fitness? -0.776

Looking for the measured abundance fitness of T18P , can you help? -1.08

Quick check: abundance fitness of A16V ? -0.271

What value of measured abundance fitness is listed for D37G ? -0.51
